- target.or.test.system: EBNA1 DNA binding domain (DBD) (Epstein-Barr virus, UniProt P03211)
- Construct: 246 nM EBNA1 DBD (aa 459–607); hexa-histidine (N); made in house; host or cells: E. coli
- Sequence (P03211 459-607): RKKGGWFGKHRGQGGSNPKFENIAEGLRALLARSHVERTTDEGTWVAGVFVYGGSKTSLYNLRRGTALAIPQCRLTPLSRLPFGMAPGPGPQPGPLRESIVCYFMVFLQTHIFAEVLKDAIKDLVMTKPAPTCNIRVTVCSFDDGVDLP
- test.name: Fluorescence polarization (FP) assay of EBNA1-DNA binding
- condition.set: purified EBNA1 DBD, Cy5 DNA hairpin; read-out: IC50, inhibition of EBNA1-DNA binding in FP assay
readout.type: IC50

Reported IC50 ( CC(=O)Nc1ccc(S(=O)(=O)N2c3ccccc3C(C)=CC2(C)C)cc1 [SC11] ) = 20 to 100 µM

---

Each entry below lists one item and its recorded IC50 value.
- target.or.test.system: Zta (Epstein-Barr virus)
- Construct: 300 nM ZTA full length purified recombinant protein; Hexa-His; made in house; host or cells: E. coli
- Sequence (P03206 whole entry): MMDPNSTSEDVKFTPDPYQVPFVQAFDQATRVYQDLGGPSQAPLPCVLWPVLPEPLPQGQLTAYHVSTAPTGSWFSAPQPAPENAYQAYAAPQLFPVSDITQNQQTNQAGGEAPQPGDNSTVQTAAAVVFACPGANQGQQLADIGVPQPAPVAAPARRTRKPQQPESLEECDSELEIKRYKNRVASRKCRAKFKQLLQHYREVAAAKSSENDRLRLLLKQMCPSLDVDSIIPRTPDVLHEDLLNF
- test.name: Fluorescence polarization (FP) assay of Zta-DNA binding (specificity control)
- condition.set: inhibitor 833 to 7 µM, 2-fold dilutions; 300 nM Zta; read-out: IC50, inhibition of Zta-DNA binding (FP, Fig. 3 panel B)
Output spec: scalar in µM, unitless text.

Here is how some compounds turned out for IC50.
CC(=O)Oc1ccc(N(C(C)=O)S(=O)(=O)c2ccc3ccccc3c2)cc1Br
300
CC(=O)Nc1ccc(S(=O)(=O)N2c3ccccc3C(C)=CC2(C)C)cc1
406

Reported IC50 ( CC1CCc2c(sc3nc(SCc4ccc5c(c4)OCO5)nc(N)c23)C1 (stereo not shown) ) = 193

---

- target.or.test.system: EBNA1 DNA binding domain (DBD) (Epstein-Barr virus, UniProt P03211)
- Construct: 246 nM EBNA1 DBD (aa 459–607); hexa-histidine (N); made in house; host or cells: E. coli
- test.name: Fluorescence polarization (FP) assay of EBNA1-DNA binding
- condition.set: inhibitor 833 to 7 µM, 2-fold dilutions; 246 nM EBNA1 DBD; read-out: IC50, inhibition of EBNA1-DNA binding (FP, Fig. 3 panel A)
Each entry below lists one item and its recorded IC50 value.
Output spec: scalar in µM, unitless text.

CC1CCc2c(sc3nc(SCc4ccc5c(c4)OCO5)nc(N)c23)C1 (stereo not shown)
546

Considering `CC(=O)Nc1ccc(S(=O)(=O)N2c3ccccc3C(C)=CC2(C)C)cc1` , its IC50 with EBNA1 DNA binding domain (DBD) (Epstein-Barr virus, UniProt P03211) was recorded as 92.2

Considering `N#CCc1ccc(NC(=O)c2cc(Cl)ccc2NS(=O)(=O)c2cccc3nsnc23)cc1` , its IC50 with EBNA1 DNA binding domain (DBD) (Epstein-Barr virus, UniProt P03211) was recorded as 49.1

Considering `CC(=O)Oc1ccc(N(C(C)=O)S(=O)(=O)c2ccc3ccccc3c2)cc1Br` , its IC50 with EBNA1 DNA binding domain (DBD) (Epstein-Barr virus, UniProt P03211) was recorded as 23.7
